biological target: Recombinant full-length human EP (Enteropeptidase) (Homo sapiens); construct: Recombinant full-length human EP (PeproTech, Cat #450-48C); purchased PeproTech 450-48C; assay: In vitro inhibition potencies against Enteropeptidase (EP), fluorescent peptide GDDDDK-naphthylamine substrate; assay type: biochemical; conditions: compound 1 μM, 300 μM substrate, 1.25 nM EP
Sequence (P98073 whole entry): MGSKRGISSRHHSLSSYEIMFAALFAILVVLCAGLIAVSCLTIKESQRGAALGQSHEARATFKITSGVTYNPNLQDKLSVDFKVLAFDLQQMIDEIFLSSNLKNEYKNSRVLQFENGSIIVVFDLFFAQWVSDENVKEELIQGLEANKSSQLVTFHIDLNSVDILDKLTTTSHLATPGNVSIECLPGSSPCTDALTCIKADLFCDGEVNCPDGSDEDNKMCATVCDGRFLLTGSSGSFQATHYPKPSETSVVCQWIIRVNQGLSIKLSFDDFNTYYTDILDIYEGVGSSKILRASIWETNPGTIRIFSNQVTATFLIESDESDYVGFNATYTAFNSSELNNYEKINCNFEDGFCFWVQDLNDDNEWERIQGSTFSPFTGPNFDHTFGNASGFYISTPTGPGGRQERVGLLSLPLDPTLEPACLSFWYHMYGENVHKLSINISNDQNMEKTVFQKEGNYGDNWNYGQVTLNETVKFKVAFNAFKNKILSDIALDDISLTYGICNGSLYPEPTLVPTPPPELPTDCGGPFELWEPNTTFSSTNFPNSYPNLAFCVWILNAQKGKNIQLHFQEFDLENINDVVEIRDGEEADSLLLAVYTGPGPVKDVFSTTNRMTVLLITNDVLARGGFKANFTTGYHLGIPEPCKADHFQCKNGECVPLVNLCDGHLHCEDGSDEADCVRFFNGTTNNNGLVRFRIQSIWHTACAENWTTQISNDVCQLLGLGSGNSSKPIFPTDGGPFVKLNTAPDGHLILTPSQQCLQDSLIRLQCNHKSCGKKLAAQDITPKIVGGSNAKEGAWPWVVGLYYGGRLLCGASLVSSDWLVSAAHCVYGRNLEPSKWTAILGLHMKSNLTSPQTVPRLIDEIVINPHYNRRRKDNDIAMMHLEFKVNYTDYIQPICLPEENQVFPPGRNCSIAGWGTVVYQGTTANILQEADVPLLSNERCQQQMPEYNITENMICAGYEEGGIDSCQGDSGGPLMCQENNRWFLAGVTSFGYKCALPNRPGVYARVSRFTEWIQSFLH
Given measured inhibition at 1 µM, output yes if it is greater than or equal to 90% and no if not.

- Compound: "N=C(N)Nc1ccc(C(=O)Oc2ccc(CC(=O)O)n3ncnc23)s1 [Compound 10]"
  Group label: "yes"
- Compound: "N=C(N)Nc1ccc(C(=O)Oc2ccc(CC(=O)NCC(=O)O)n3ncnc23)cc1 [Compound 4]"
  Group label: "yes"
- Compound: "N=C(N)Nc1ncc(C(=O)Oc2ccc(CC(=O)NC(CC(=O)O)C(=O)O)n3ncnc23)cn1 (stereo not shown) [Compound 28]"
  Group label: "yes"

Exam item: decide whether the reported inhibition at 1 µM for N=C(N)Nc1ccc(C(=O)Oc2cc(CC(=O)O)cn3ncnc23)cc1 [Compound 26] is at least 90%. no

Exam item: decide whether the reported inhibition at 1 µM for N=C(N)Nc1ccc(C(=O)Oc2ccc(CC(=O)N(CC(=O)O)CC(=O)O)n3ncnc23)cc1 [Compound 6] is at least 90%. no

Exam item: decide whether the reported inhibition at 1 µM for Cc1cc(C(=O)Oc2ccc(CC(=O)O)n3ncnc23)ccc1NC(=N)N [Compound 15] is at least 90%. no

Just for reference, patent US20220281866A1 is where these values come from.
